# tgt: Pyruvate kinase PKM (Homo sapiens, UniProt P14618)
# Sequence (P14618 2-531 limits assumed): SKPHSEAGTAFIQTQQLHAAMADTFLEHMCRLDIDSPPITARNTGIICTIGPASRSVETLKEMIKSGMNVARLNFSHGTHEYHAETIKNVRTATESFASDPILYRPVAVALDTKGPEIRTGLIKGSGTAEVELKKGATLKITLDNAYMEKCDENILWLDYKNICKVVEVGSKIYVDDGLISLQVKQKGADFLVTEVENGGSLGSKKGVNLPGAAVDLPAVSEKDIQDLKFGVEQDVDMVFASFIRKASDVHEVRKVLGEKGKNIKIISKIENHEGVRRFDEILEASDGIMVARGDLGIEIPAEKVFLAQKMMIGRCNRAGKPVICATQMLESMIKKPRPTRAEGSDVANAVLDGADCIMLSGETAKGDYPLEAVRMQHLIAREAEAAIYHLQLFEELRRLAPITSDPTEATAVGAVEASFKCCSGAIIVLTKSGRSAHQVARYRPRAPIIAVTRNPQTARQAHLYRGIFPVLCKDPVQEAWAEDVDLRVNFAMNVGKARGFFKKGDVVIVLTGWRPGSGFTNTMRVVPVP
# assay_explanation: Activation of full length recombinant human N-terminal His6-tagged PKM2 expressed in Escherichia coli BL21(DE3) at 10 ug/ml using PEP as substrate preincubated for 5 mins followed by substrate addition measured after 90 mins in presence of ADP by Kinase-Glo luminescence assay relative to control
measurement_kind: Emax (%)
Your answer should be a plain number; it is taken to be in %.

## Task Consider the compound Cn1cc(C(=O)c2cccc(Cl)c2Cl)cc1C(N)=O and give its measured Emax.
## Result 198

###

# tgt: Pyruvate kinase PKM (Homo sapiens, UniProt P14618)
# assay_explanation: Activation of full length recombinant human N-terminal His6-tagged PKM2 expressed in Escherichia coli BL21(DE3) at 10 ug/ml using PEP as substrate preincubated for 5 mins followed by substrate addition measured after 90 mins in presence of ADP by Kinase-Glo luminescence assay relative to control
measurement_kind: Emax (%)
Your answer should be a plain number; it is taken to be in %.

Use the examples below as a reference point.
Cn1cc(C(=O)c2cccc(Cl)c2Cl)cc1C(=O)NCNC(=O)c1cc(C(=O)c2cccc(Cl)c2Cl)cn1C | 194
O=S(=O)(c1ccc2c(c1)OCCO2)N1CCN(S(=O)(=O)c2c(F)cccc2F)CC1 | 181

Now turn to the next molecule.
## Task Consider the molecule Cn1cc(C(=O)c2cccc(Cl)c2Cl)cc1C(=O)NCCNC(=O)c1cc(C(=O)c2cccc(Cl)c2Cl)cn1C and give its measured Emax.
## Result 184

The origin of these recorded values is ChEMBL document CHEMBL4033691.
